target: Acetylcholinesterase (Electrophorus electricus); conditions: at 100 µM
Sequence (O42275 whole entry): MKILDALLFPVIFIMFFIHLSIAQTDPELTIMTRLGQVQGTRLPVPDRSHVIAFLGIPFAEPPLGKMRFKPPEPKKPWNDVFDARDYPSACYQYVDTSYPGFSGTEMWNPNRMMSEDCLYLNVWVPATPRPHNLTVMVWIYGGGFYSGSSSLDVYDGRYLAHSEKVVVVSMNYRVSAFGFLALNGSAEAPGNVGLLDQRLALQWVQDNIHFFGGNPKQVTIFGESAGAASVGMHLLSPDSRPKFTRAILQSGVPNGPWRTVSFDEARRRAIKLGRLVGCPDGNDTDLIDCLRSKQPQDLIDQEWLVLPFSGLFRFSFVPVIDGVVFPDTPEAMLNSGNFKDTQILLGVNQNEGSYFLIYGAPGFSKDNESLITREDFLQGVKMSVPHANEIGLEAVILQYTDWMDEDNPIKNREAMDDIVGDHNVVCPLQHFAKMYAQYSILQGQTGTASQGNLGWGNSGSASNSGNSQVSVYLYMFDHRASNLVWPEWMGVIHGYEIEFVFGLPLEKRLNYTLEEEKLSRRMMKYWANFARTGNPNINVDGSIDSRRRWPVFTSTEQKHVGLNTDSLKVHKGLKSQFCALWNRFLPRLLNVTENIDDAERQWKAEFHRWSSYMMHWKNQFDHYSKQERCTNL
Description: Inhibition of electric eel AChE-mediated amyloid beta (1 to 42) (unknown origin) co-aggregation at 100 uM measured after 48 hrs by ThT-assay
Hi all, reminder that labels come from inhibition, split as one (below 50%), two (50% to below 70%), three (70% or more)

See these solved cases before continuing.
query_smiles: CCOC(=O)c1cnc2ccc(F)cc2c1N1CCN(c2ncccc2C#N)CC1
study_target: Acetylcholinesterase (Electrophorus electricus)
class_assignment: two
--
query_smiles: CCOC(=O)c1cnc2ccc(F)cc2c1N1CCN(c2cc(C)nc3ncnn23)CC1
study_target: Acetylcholinesterase (Electrophorus electricus)
class_assignment: three
--
query_smiles: CCOC(=O)c1cnc2ccc(C)cc2c1N1CCN(c2cc(C)nc3ncnn23)CC1
study_target: Acetylcholinesterase (Electrophorus electricus)
class_assignment: two
--
query_smiles: CCOC(=O)c1cnc2cc(C(F)(F)F)ccc2c1N1CCN(c2cc(C)nc3ncnn23)CC1
study_target: Acetylcholinesterase (Electrophorus electricus)
class_assignment: two

Read the next record carefully.
Exercise: Lab log: CCOC(=O)c1cnc2cc(C(F)(F)F)ccc2c1N1CCN(c2ncccc2C#N)CC1 — assign inhibition category
Solution: one

====

// each record: one item and its IC50 for Cholinesterase (Equus caballus, UniProt P81908)
Write the number in nM without appending the unit.

query_smiles: CCOC(=O)c1cnc2c(F)cccc2c1N1CCN(c2ncccc2C#N)CC1
endpoint_result: 890
//
query_smiles: CCOC(=O)c1cnc2ccc(F)cc2c1N1CCN(c2cc(C)nc3ncnn23)CC1
endpoint_result: 510

Exercise: Consider the compound CCOC(=O)c1cnc2ccc(C)cc2c1N1CCN(c2cc(C)nc3ncnn23)CC1 and give its measured IC50.
Solution: 4090

Exercise: Consider the compound CCOC(=O)c1cnc2ccc(OC)cc2c1N1CCN(c2cc(C)nc3ncnn23)CC1 and give its measured IC50.
Solution: 2010

Exercise: Consider the compound CCOC(=O)c1cnc2cc(C(F)(F)F)ccc2c1N1CCN(c2ncccc2C#N)CC1 and give its measured IC50.
Solution: 980

Exercise: Consider the compound CCOC(=O)c1cnc2cc(C(F)(F)F)ccc2c1N1CCN(c2cc(C)nc3ncnn23)CC1 and give its measured IC50.
Solution: 780

Exercise: Consider the compound CCOC(=O)c1cnc2ccc(C)cc2c1N1CCN(c2ncccc2C#N)CC1 and give its measured IC50.
Solution: 3000

Exercise: Consider the compound CCOC(=O)c1cnc2ccc(F)cc2c1N1CCN(c2ncccc2C#N)CC1 and give its measured IC50.
Solution: 1230

Exercise: Consider the compound Cc1cc(N2CCN(c3ncccc3C#N)CC2)n2ncnc2n1 and give its measured IC50.
Solution: 780

Exercise: Consider the compound CCOC(=O)c1cnc2c(F)cccc2c1N1CCN(c2cc(C)nc3ncnn23)CC1 and give its measured IC50.
Solution: 180

Exercise: Consider the compound CCOC(=O)c1cnc2ccc(OC)cc2c1N1CCN(c2ncccc2C#N)CC1 and give its measured IC50.
Solution: 1900

====

target: UniProtKB O42275
Reported values of IC50 for individual entries
Write the number in nM without appending the unit.

# example entries with known answers
query_smiles: CCOC(=O)c1cnc2cc(C(F)(F)F)ccc2c1N1CCN(c2ncccc2C#N)CC1
IC50 [nM]: 880

query_smiles: CCOC(=O)c1cnc2ccc(OC)cc2c1N1CCN(c2cc(C)nc3ncnn23)CC1
IC50 [nM]: 760

Exercise: Consider the molecule CCOC(=O)c1cnc2ccc(F)cc2c1N1CCN(c2ncccc2C#N)CC1 and give its measured IC50.
Solution: 580

Exercise: Consider the molecule CCOC(=O)c1cnc2c(F)cccc2c1N1CCN(c2ncccc2C#N)CC1 and give its measured IC50.
Solution: 730

====

target: Amyloid-beta precursor protein (Homo sapiens); settings: at 25 µM
Description: Inhibition of amyloid beta (1 to 42) (unknown origin) self-aggregation at 25 uM measured after 48 hrs by ThT-assay
assay_endpoint: inhibition (%)
Write the number in % without appending the unit.

# example entries with known answers
query_smiles: CCOC(=O)c1cnc2cc(C(F)(F)F)ccc2c1N1CCN(c2cc(C)nc3ncnn23)CC1
measure_unit: %
inhibition: 43.8
--
query_smiles: CCOC(=O)c1cnc2ccc(OC)cc2c1N1CCN(c2ncccc2C#N)CC1
measure_unit: %
inhibition: 39.8
--
query_smiles: Cc1cc(N2CCN(c3ncccc3C#N)CC2)n2ncnc2n1
measure_unit: %
inhibition: 46.8
--
query_smiles: CCOC(=O)c1cnc2cc(C(F)(F)F)ccc2c1N1CCN(c2ncccc2C#N)CC1
measure_unit: %
inhibition: 44.2
--
query_smiles: CCOC(=O)c1cnc2ccc(F)cc2c1N1CCN(c2ncccc2C#N)CC1
measure_unit: %
inhibition: 54.9

Turning to the following compound.
Exercise: Consider the compound CCOC(=O)c1cnc2c(F)cccc2c1N1CCN(c2cc(C)nc3ncnn23)CC1 and give its measured inhibition.
Solution: 64.2

====

target: Acetylcholinesterase (Electrophorus electricus) (UniProt O42275); settings: at 100 µM
Sequence (O42275 24-633 limits assumed): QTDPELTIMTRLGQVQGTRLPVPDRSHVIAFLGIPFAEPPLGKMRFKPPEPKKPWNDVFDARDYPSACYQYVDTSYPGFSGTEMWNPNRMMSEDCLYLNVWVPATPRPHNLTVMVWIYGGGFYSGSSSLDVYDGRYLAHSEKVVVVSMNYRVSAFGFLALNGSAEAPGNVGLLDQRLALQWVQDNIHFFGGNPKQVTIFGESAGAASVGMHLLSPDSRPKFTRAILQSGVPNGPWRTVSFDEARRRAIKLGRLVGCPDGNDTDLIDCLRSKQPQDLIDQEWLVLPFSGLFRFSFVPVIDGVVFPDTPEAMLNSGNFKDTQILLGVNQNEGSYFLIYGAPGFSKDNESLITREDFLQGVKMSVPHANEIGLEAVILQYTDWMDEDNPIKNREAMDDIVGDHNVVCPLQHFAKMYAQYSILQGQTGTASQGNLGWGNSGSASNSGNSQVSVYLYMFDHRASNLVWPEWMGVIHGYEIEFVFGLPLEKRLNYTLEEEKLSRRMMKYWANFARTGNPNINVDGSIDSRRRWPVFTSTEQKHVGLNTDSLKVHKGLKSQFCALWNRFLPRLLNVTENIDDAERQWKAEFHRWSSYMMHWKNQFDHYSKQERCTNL
assay_endpoint: inhibition (%)
Write the number in % without appending the unit.

# example entries with known answers
query_smiles: CCOC(=O)c1cnc2c(F)cccc2c1N1CCN(c2ncccc2C#N)CC1
measure_unit: %
inhibition: 50.3
--
query_smiles: CCOC(=O)c1cnc2ccc(OC)cc2c1N1CCN(c2cc(C)nc3ncnn23)CC1
measure_unit: %
inhibition: 68.7
--
query_smiles: CCOC(=O)c1cnc2c(F)cccc2c1N1CCN(c2cc(C)nc3ncnn23)CC1
measure_unit: %
inhibition: 70.3

Turning to the following molecule.
Exercise: Consider the molecule Cc1cc(N2CCN(c3ncccc3C#N)CC2)n2ncnc2n1 and give its measured inhibition.
Solution: 49.4

====

molecular target: Acetylcholinesterase (Electrophorus electricus)
Reported values of pIC50 for individual entries
pIC50 is defined as minus the log10 of a concentration measured in mol/L.

query_smiles: CCOC(=O)c1cnc2ccc(F)cc2c1N1CCN(c2cc(C)nc3ncnn23)CC1
assay_endpoint: pIC50
endpoint_result: 7.38

query_smiles: Cc1cc(N2CCN(c3ncccc3C#N)CC2)n2ncnc2n1
assay_endpoint: pIC50
endpoint_result: 5.86

query_smiles: CCOC(=O)c1cnc2ccc(C)cc2c1N1CCN(c2cc(C)nc3ncnn23)CC1
assay_endpoint: pIC50
endpoint_result: 5.58

query_smiles: CCOC(=O)c1cnc2cc(C(F)(F)F)ccc2c1N1CCN(c2cc(C)nc3ncnn23)CC1
assay_endpoint: pIC50
endpoint_result: 6.74

query_smiles: CCOC(=O)c1cnc2ccc(OC)cc2c1N1CCN(c2ncccc2C#N)CC1
assay_endpoint: pIC50
endpoint_result: 5.96

query_smiles: CCOC(=O)c1cnc2c(F)cccc2c1N1CCN(c2cc(C)nc3ncnn23)CC1
assay_endpoint: pIC50
endpoint_result: 7.01

Turning to the following compound.
Exercise: Consider the compound CCOC(=O)c1cnc2ccc(C)cc2c1N1CCN(c2ncccc2C#N)CC1 and give its measured pIC50.
Solution: 5.46
